Biological target: human ADRA2B receptor (Homo sapiens, UniProt P18089)
Construct: expressed in transfected cells
Sequence (P18089 1-450): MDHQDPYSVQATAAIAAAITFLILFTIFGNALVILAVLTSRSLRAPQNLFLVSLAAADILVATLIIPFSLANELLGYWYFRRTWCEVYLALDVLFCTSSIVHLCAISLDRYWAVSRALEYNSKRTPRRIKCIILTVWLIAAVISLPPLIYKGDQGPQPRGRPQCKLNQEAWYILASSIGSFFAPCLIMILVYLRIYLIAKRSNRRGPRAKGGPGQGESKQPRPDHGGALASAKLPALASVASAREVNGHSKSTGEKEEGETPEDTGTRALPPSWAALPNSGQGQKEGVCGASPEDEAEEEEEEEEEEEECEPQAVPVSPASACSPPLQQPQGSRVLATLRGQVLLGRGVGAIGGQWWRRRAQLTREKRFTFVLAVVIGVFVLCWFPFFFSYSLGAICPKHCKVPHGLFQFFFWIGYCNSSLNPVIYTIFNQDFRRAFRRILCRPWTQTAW
Experiment: GTPγS agonist assay, ADRA2B receptor
Type: biochemical
Details: read-out: GTPase - Human Alpha2B EC50

{"columns": ["compound", "EC50"],
 "data": [
  ["COc1ncc(C[C@@H](c2c[nH]cn2)c2cccc(Cl)c2C)cn1", "50 to 500 nM"],
  ["CCOc1ccc(C(Cc2cccnn2)c2c[nH]cn2)cc1C(F)(F)F (stereo not shown)", "> 500 nM"],
  ["COc1nccc(CC(c2c[nH]cn2)c2cccc(Cl)c2Cl)n1 (stereo not shown)", "< 10 nM"],
  ["Cc1cccc([C@H](Cc2ccnc(CF)n2)c2c[nH]cn2)c1C", "50 to 500 nM"],
  ["Cc1cccc([C@@H](Cc2ccon2)c2c[nH]cn2)c1C", "10 to 50 nM"],
  ["CCOc1c(F)cccc1C(Cc1cccnn1)c1c[nH]cn1 (stereo not shown)", "> 500 nM"],
  ["Cc1cnc(C[C@@H](c2cnc[nH]2)c2cccc(C)c2C)nc1", "50 to 500 nM"],
  ["COc1cccc(C[C@H](c2c[nH]cn2)c2cccc(OC)c2Cl)n1", "50 to 500 nM"],
  ["COc1cncc(CC(c2cnc[nH]2)c2cccc(C)c2C)n1 (stereo not shown)", "< 10 nM"],
  ["Cc1cccc(CC(c2cnc[nH]2)c2cccc(C)c2C)n1 (stereo not shown)", "10 to 50 nM"],
  ["Clc1ccc(C(Cc2cccnn2)c2c[nH]cn2)cc1 (stereo not shown)", "> 500 nM"],
  ["Cc1cccc([C@@H](Cc2ccccn2)c2cnc[nH]2)c1F", "10 to 50 nM"],
  ["COc1cccc(C[C@@H](c2c[nH]cn2)c2cccc(C)c2F)n1 (single isomer, unassigned)", "50 to 500 nM"],
  ["Cc1cccc(C(Cc2cnco2)c2c[nH]cn2)c1C (stereo not shown)", "< 10 nM"],
  ["COc1cccc(C[C@H](c2cnc[nH]2)c2cccc(C)c2OC)n1", "< 10 nM"],
  ["Cc1c(Cl)cccc1[C@H](Cc1cccnc1)c1cnc[nH]1", "> 500 nM"],
  ["COc1nccc(CC(c2c[nH]cn2)c2cc(Cl)ccc2C)n1 (stereo not shown)", "50 to 500 nM"],
  ["Fc1cccc(C(Cc2cccnn2)c2c[nH]cn2)c1Cl (stereo not shown)", "> 500 nM"],
  ["COc1cccc(C[C@H](c2cnc[nH]2)c2cccc(OC)c2C)n1", "50 to 500 nM"],
  ["Cc1cncc(C[C@@H](c2cnc[nH]2)c2cccc(C)c2C)n1", "< 10 nM"],
  ["COc1cccc(C(Cc2cccnn2)c2c[nH]cn2)c1F (stereo not shown)", "> 500 nM"],
  ["Cc1cccc([C@@H](Cc2cscn2)c2c[nH]cn2)c1C", "< 10 nM"],
  ["Cc1c(Cl)cccc1C(Cc1ccccn1)c1cnc[nH]1 (stereo not shown)", "50 to 500 nM"],
  ["Cc1cccc(C(Cc2ccc(Cl)cn2)c2cnc[nH]2)c1C (stereo not shown)", "< 10 nM"],
  ["Cc1cccc(C(Cc2ccc(=O)[nH]n2)c2c[nH]cn2)c1C (stereo not shown)", "< 10 nM"],
  ["Cc1cccc([C@@H](Cc2ccccn2)c2cnc[nH]2)c1Cl", "10 to 50 nM"],
  ["COc1cccc(CC(c2cnc[nH]2)c2cccc(OC)c2Cl)n1 (stereo not shown)", "< 10 nM"],
  ["COc1cccc(C[C@H](c2c[nH]cn2)c2cccc(C)c2C)n1", "< 10 nM"],
  ["FC1(F)Oc2cccc(C(Cc3ccccn3)c3c[nH]cn3)c2O1 (stereo not shown)", "50 to 500 nM"],
  ["Cc1nccc(C[C@@H](c2cnc[nH]2)c2cccc(C)c2C)n1", "> 500 nM"],
  ["Fc1ccc(C(Cc2cccnn2)c2c[nH]cn2)c(F)c1Cl (stereo not shown)", "> 500 nM"]
]}
